Cited source for all entries: the kinase profiling compilation of Christmann-Franck et al. (2016)

Documented inhibition across a set of molecules
Test System: EPHA5 (human) (UniProt P54756)
Sequence (P54756 whole entry, looked up): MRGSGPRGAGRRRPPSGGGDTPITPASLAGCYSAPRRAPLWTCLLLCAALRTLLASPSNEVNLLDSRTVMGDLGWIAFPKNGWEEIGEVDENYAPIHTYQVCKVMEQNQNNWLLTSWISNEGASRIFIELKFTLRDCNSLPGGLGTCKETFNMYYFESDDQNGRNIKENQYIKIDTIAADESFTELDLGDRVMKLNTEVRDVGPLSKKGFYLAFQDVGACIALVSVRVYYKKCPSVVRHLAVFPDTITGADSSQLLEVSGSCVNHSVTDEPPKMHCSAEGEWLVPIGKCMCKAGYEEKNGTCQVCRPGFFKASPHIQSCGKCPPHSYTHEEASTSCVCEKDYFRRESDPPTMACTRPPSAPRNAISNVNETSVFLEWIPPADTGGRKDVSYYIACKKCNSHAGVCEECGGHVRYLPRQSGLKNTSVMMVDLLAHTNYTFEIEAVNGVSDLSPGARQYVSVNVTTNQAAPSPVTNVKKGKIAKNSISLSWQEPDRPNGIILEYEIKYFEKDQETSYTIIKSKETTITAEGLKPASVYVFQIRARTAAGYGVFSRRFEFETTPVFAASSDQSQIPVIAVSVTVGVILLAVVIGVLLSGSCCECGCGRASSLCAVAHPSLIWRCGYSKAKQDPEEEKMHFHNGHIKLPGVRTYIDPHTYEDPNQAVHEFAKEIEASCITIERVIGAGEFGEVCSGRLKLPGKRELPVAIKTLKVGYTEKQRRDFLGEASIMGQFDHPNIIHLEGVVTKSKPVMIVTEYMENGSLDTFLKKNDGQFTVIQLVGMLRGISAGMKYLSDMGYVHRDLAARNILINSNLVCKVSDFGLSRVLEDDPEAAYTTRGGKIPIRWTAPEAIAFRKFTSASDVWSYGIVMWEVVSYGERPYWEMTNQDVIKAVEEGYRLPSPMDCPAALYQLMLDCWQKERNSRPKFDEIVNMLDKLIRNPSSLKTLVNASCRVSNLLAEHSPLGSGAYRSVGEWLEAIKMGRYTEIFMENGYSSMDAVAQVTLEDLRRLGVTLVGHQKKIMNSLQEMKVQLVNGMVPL
Assay Summary: Caliper, Mobility shift assay off-chip
Measurement Setup: compound 0.2 µM
Just the number in %, nothing appended.

[
  {
    "Structure Smiles": "COc1cc2c(Oc3ccc4[nH]c(C)cc4c3F)ncnc2cc1OCCCN1CCCC1",
    "Test System": "EPHA5 (human) (UniProt P54756)",
    "Test Readout": "inhibition",
    "Endpoint Result": 7.6
  }
]

Exercise: Would you kindly share the measured inhibition for CCN(CC)CCNC(=O)c1c(C)[nH]c(/C=C2\C(=O)Nc3ccc(F)cc32)c1C ?
Key: 6.7

Exercise: Entry CNC(=O)c1cc(Oc2ccc(NC(=O)Nc3ccc(Cl)c(C(F)(F)F)c3)cc2)ccn1 please
Key: 38.8

Exercise: // next record Cc1ccc(Nc2nccc(N(C)c3ccc4c(C)n(C)nc4c3)n2)cc1S(N)(=O)=O
Key: 4.7
